Reported testes uptake values are given for each entry in this list.
Tested on: LNCaP xenografts
procedure.summary: Ex vivo biodistribution and blocking studies in mice bearing LNCaP xenografts
test.conditions: 1 h blocked (coinjection of DCFPyL 0.5 mg)
readout: testes uptake

molecule="C[N+](C)(Cc1cn(CC(=O)NCCOCCOCCC(=O)N[C@@H](Cc2ccc3ccccc3c2)C(=O)NCCCC[C@H](NC(=O)N[C@@H](CCC(=O)O)C(=O)O)C(=O)O)nn1)C[B-](F)(F)F [^18F-7]" experimental_target="LNCaP xenografts" val="0.04 ± 0.01 %ID/g"
molecule="C[N+](C)(Cc1cn(Cc2ccc(C(=O)NCCCC[C@H](NC(=O)N[C@@H](CCC(=O)O)C(=O)O)C(=O)O)cc2)nn1)C[B-](F)(F)F [^18F-2]" experimental_target="LNCaP xenografts" val="0.08 ± 0.02 %ID/g"
molecule="C[N+](C)(Cc1cn(CC(=O)NC[C@H]2CC[C@H](C(=O)N[C@@H](Cc3ccc4ccccc4c3)C(=O)NCCCC[C@H](NC(=O)N[C@@H](CCC(=O)O)C(=O)O)C(=O)O)CC2)nn1)C[B-](F)(F)F [^18F-5]" experimental_target="LNCaP xenografts" val="0.24 ± 0.05 %ID/g"
molecule="C[N+](C)(Cc1ccc(C(=O)NCCCC[C@H](NC(=O)N[C@@H](CCC(=O)O)C(=O)O)C(=O)O)cc1)C[B-](F)(F)F [^18F-1]" experimental_target="LNCaP xenografts" val="0.10 ± 0.02 %ID/g"
molecule="O=C(O)CC[C@H](NC(=O)N[C@@H](CCCCNC(=O)c1ccc(Cn2cc(C[n+]3ccc([B-](F)(F)F)cc3)nn2)nc1)C(=O)O)C(=O)O [^18F-4]" experimental_target="LNCaP xenografts" val="0.08 ± 0.03 %ID/g"

* * *

Test system: LNCaP xenografts
procedure.summary: Ex vivo biodistribution and blocking studies in mice bearing LNCaP xenografts
test.conditions: 1 h blocked (coinjection of DCFPyL 0.5 mg)
readout: T/M (tumor-to-muscle ratio)

molecule="C[N+](C)(Cc1cn(Cc2ccc(C(=O)NCCCC[C@H](NC(=O)N[C@@H](CCC(=O)O)C(=O)O)C(=O)O)cc2)nn1)C[B-](F)(F)F [^18F-2]" val="2.66 ± 1.60"
molecule="C[N+](C)(Cc1ccc(C(=O)NCCCC[C@H](NC(=O)N[C@@H](CCC(=O)O)C(=O)O)C(=O)O)cc1)C[B-](F)(F)F [^18F-1]" val="2.63 ± 1.10"
molecule="O=C(O)CC[C@H](NC(=O)N[C@@H](CCCCNC(=O)c1ccc(Cn2cc(C[n+]3ccc([B-](F)(F)F)cc3)nn2)nc1)C(=O)O)C(=O)O [^18F-4]" val="1.91 ± 0.46"
molecule="C[N+](C)(Cc1cn(Cc2ccc(C(=O)NCCCC[C@H](NC(=O)N[C@@H](CCC(=O)O)C(=O)O)C(=O)O)cn2)nn1)C[B-](F)(F)F [^18F-3]" val="3.54 ± 1.43"

* * *

Tested on: LNCaP xenografts
procedure.summary: Ex vivo biodistribution and blocking studies in mice bearing LNCaP xenografts
test.conditions: 1 h blocked (coinjection of DCFPyL 0.5 mg)
readout: lung uptake (%ID/g)

molecule="C[N+](C)(Cc1cn(CC(=O)NCCOCCOCCC(=O)N[C@@H](Cc2ccc3ccccc3c2)C(=O)NCCCC[C@H](NC(=O)N[C@@H](CCC(=O)O)C(=O)O)C(=O)O)nn1)C[B-](F)(F)F [^18F-7]" readout="lung uptake" val=0.12
